# SYSTEM_TESTED: 26S proteasome non-ATPase regulatory subunit 14 (Homo sapiens)
# METHOD_NOTES: Rpn11 (PSMD14) deubiquitinase inhibitors, dose response, biochemical, fluorescence polarization, human 26S proteasome, uHTS hits (AID 686917)
# CONDITION: purified human 26S proteasome, Ub4-pepOG fluorescence polarization
The source made the active and inactive calls.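 The calls were made as follows: active = IC50 at or below 100 µM in the confirmatory dose response; inactive = the rest.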

| CHEMICAL_STRING | SYSTEM_TESTED | IC50 |
| --- | --- | --- |
| Cc1ccc(C(=O)Sc2cccc3cccnc23)cc1 | 26S proteasome non-ATPase regulatory subunit 14 (Homo sapiens) | 14.6 µM |
| O=C(Sc1cccc2cccnc12)c1ccccc1Br | 26S proteasome non-ATPase regulatory subunit 14 (Homo sapiens) | 3.83 µM |
| O=C(Sc1cccc2cccnc12)c1ccc(F)cc1F | 26S proteasome non-ATPase regulatory subunit 14 (Homo sapiens) | 9.67 µM |
| COc1ccc(C(=O)Sc2cccc3cccnc23)cc1OC | 26S proteasome non-ATPase regulatory subunit 14 (Homo sapiens) | 9.19 µM |
| O=C(Sc1cccc2cccnc12)c1ccccc1 | 26S proteasome non-ATPase regulatory subunit 14 (Homo sapiens) | 5.21 µM |
| N#Cc1ccc(C(=O)Sc2cccc3cccnc23)cc1 | 26S proteasome non-ATPase regulatory subunit 14 (Homo sapiens) | > 99 µM (inactive) |
| O=C(Sc1cccc2cccnc12)c1ccccc1F | 26S proteasome non-ATPase regulatory subunit 14 (Homo sapiens) | > 99 µM (inactive) |
| O=C(Sc1cccc2cccnc12)c1cccc2ccccc12 | 26S proteasome non-ATPase regulatory subunit 14 (Homo sapiens) | 3.97 µM |
| COC(=O)C[C@H](NC(=O)c1cnc2c(SSc3cccc4cc(C(=O)N[C@@H](CC(=O)OC)C(=O)OC)cnc34)cccc2c1)C(=O)OC | 26S proteasome non-ATPase regulatory subunit 14 (Homo sapiens) | 3.43 µM |
| CC[C@@H](C)[C@H](NC(=O)c1cnc2c(SSc3cccc4cc(C(=O)N[C@H](C(=O)OC)[C@@H](C)CC)cnc34)cccc2c1)C(=O)OC | 26S proteasome non-ATPase regulatory subunit 14 (Homo sapiens) | 1.77 µM |
| O=C(Sc1cccc2cccnc12)c1ccc(C(F)(F)F)cc1 | 26S proteasome non-ATPase regulatory subunit 14 (Homo sapiens) | 3.73 µM |

Ref: PubChem BioAssay AID686917
